PROCEDURE TEXT: PSAC antagonists in infected red cells, primary screen, cell-based, P. falciparum Indochina, OD700, 18 h (AID 1157)
CONDITION SUMMARY: P. falciparum Indochina infected erythrocytes, osmotic lysis OD700, 18 h; higher = more signal, called active from +8 up or from −8 down
PARAMETER: z-score
Just the number.

O=C(NCc1ccccc1)[C@@]1(Cc2ccccc2)COC(c2ccc(OCCCO)cc2)=N1	3.89
COc1cc2c(cc1OC)CN(C(=O)[C@H]1[C@@H]3C(=O)O[C@@H](c4ccccc4)[C@@H](c4ccccc4)N3[C@@H](c3ccc(O)cc3)[C@]13C(=O)Nc1ccc(C#CC4(O)CCCCCC4)cc13)CC2	0.737
C[N+](C)(C)CCCCNC(=O)[C@@H]1C[C@@H]2C(=O)N3CCC[C@H]3C(=O)N2[C@@H]1c1cccc(OCCO)c1	-2.13
CCCC=C(CCC)[C@@H](NC(=O)c1ccc(C(F)(F)F)cc1)c1ccccc1	-1.05
Cc1ccc(N2C(=O)c3ccccc3[C@](C)(C(=O)O)[C@@H]2c2ccc(CO)cc2)nc1	-0.211

Q: # z-score lookup, item `Cc1ccc(S(=O)(=O)N2[C@@H](c3ccccc3)C(C(=O)O)=CC[C@H]2c2ccccc2)cc1`
A: 0.83

Q: What do you get for `COc1cc2c(cc1OC)CN(C(=O)[C@@H]1[C@H]3C(=O)O[C@H](c4ccccc4)[C@H](c4ccccc4)N3[C@H](c3ccccc3OCCO)[C@@]13C(=O)Nc1ccccc13)CC2` ?
A: 2.22

Q: For `COc1cc([C@@H]2N[C@H](C(=O)O)Cc3c2[nH]c2ccccc32)cc(OC)c1OC` then?
A: 0.198

----------
// reported composite z-score for each item listed
SYSTEM: Fibroblast growth factor 10 (Homo sapiens)
PROCEDURE TEXT: FGF10 binders on small-molecule microarrays, primary screen, biochemical, small-molecule microarray, 635 nm fluorescence (AID 1102)
CONDITION SUMMARY: FGF10 binding, fluorescence 635 nm, higher = more signal
Reply with just the number.

# annotated cases, reported composite z-score shown
CCC#CCN(Cc1ccccc1Br)[C@H](/C=C/c1ccccc1)[C@@H](O)Cc1ccccc1	-0.89
O=C1O[C@@H](c2ccccc2)[C@@H](c2ccccc2)N2[C@@H](c3ccc(O)cc3)[C@]3(C(=O)Nc4ccccc43)[C@@H](C(=O)N3CCN(c4ncccn4)CC3)[C@H]12	-0.0898
CN(C)C(=O)[C@@]1(Cc2ccccc2N=[N+]=[N-])N=C(c2ccc(OCCCO)cc2)O[C@H]1c1ccccc1CN=[N+]=[N-]	0.689
C=C(/C(=C/C[C@@H](OC(=O)c1ccncc1)c1ccc(CO)o1)c1cnc2ccccc2c1)C(C)C	1.06
O=C(NCc1ccccc1)[C@@]1(Cc2ccccc2)COC(c2ccc(OCCCO)cc2)=N1	0.117
CCCC=C(CCC)[C@@H](NC(=O)c1ccc(C(F)(F)F)cc1)c1ccccc1	-0.433

As a next step, examine the compound that follows.
Q: Quick one: composite z-score for `CCOC(=O)C[C@H]1[C@H](OC(=O)c2cc3ccccc3oc2=O)[C@@H](NC(=O)C2CCCCC2)c2cc(OCCCO)ccc2N1C(=O)c1ccc2ccccc2n1` ?
A: 0.68

----------
System: Lefty1
PROCEDURE TEXT: Lefty1 binders on small-molecule microarrays, primary screen, biochemical, small-molecule microarray, 635/667 nm fluorescence (AID 1139)
CONDITION SUMMARY: small-molecule microarray binding, fluorescence 635/667; higher = more signal
Kind request: treat 0.9 as inclusive, so composite z-score at 0.9 or higher is label 1, anything lower is label 0.

The examples below pair each entry with its known result.
O=C(NCC(F)(F)F)[C@@H]1c2ccccc2C(=O)N(Cc2ccccc2Cl)[C@H]1c1ccc(CO)cc1	label 0
C=CCNC(=O)[C@H]1[C@@H]2C(=O)O[C@@H](c3ccccc3)[C@@H](c3ccccc3)N2[C@@H](c2ccccc2OCCO)[C@]12C(=O)N(C(=O)OCCOC)c1ccc(C#CCC(C(=O)OC)C(=O)OC)cc12	label 0
CC(C)N1CC=CC23O[C@@H]4/C=C\CCCOC(=O)C4[C@H]2C(=O)N(CCCCCO)[C@@H]3C1=O (some centres undefined)	label 0
C=CC[C@]1(C(=O)OC)N=C(c2ccc(OCCCO)cc2)O[C@H]1c1ccccc1CN=[N+]=[N-]	label 0
C[C@H]1NC(=O)[C@@H](C)NC(=O)[C@@]23C(=O)N[C@@H](Cc4ccccc4)C2[C@H](C)[C@@]2(C)O[C@H]2C3/C=C/C/C=C\CNC1=O (some centres undefined)	label 0
CO[C@H]1COC(=O)[C@@H](Cc2ccccc2)NC(=O)[C@@H](C)COC(=O)CC=C[C@@H]1C	label 1
C=CCN1C(=O)[C@]2(O[C@H](CCn3cc(CCO)nn3)[C@@H]([Si](C)(C)c3ccc(OC)cc3)[C@@H]2C)c2cc(NC(=O)c3ccc(OC)cc3)ccc21	label 1
O=C1C2C=CC(C(O)C#Cc3ccccc3)N(Nc3ccccc3)C2C(=O)N1c1ccccc1 (centres undefined)	label 0
COc1ccc([Si](C)(C)[C@H]2[C@H](CC(=O)N3Cc4ccccc4C[C@H]3CO)O[C@@]3(C(=O)N(Cc4cccc(N5CCOC5=O)c4)c4ccccc43)[C@@H]2C)cc1	label 1
COc1ccc([Si](C)(C)[C@H]2[C@H](CC(=O)N(CCO)Cc3ccccc3)O[C@@]3(C(=O)N(C)c4ccccc43)[C@@H]2C)cc1	label 1

Q: Is reported composite z-score greater than or equal to 0.9 here: `C[C@@H]1CC[C@H]2C(=O)N3CCC[C@H]3C(=O)N2[C@H]1c1ccc(Br)cc1`
A: label 0

Q: Now the molecule `C=CCOC(=O)[C@@H]1[C@H]2C(=O)O[C@H](c3ccccc3)[C@H](c3ccccc3)N2[C@H](c2ccc(OCCOC(=O)[C@H]3C[C@H]4C(=O)N[C@@H](CCCCNC(C)=O)C(=O)N4[C@H]3c3ccc(O)cc3)cc2)[C@@]12C(=O)Nc1ccc(I)cc12`
A: label 1

Q: Do the same for `CCCC=C(CCC)[C@@H](NS(=O)(=O)c1ccc(-c2ccccc2)cc1)c1ccc(C(=O)OC)cc1` please
A: label 0

Q: Same read-out for `Cc1ccc(N2C(=O)c3ccccc3[C@](C)(C(=O)O)[C@@H]2c2ccc(CO)cc2)nc1` ?
A: label 0
